- ASSAY: Human PK, second comparative study: single dose food and PPI assessment of 100 mg powder-in-capsule (Panels J-M)
- Assay type: in vivo
- SETTINGS: plasma, oral, 100 mg, 100 mg PIC single dose, Panel K: high fat breakfast, no PPI, read-out: plasma Cmax, Mean
REPORTED METRIC: Cmax (nM)
# number only, unit nM dropped from output

Ask: Could you share which Cmax value was measured for C[C@H]1CN(C2COC2)CCN1c1ccc(Nc2cc(-c3ccnc(N4CCn5c(cc6c5CC(C)(C)C6)C4=O)c3CO)cn(C)c2=O)nc1 [Compound (I) free base] ?
Reply: 235

* * *

- ASSAY: Human PK, second comparative study: single dose food and PPI assessment of 100 mg powder-in-capsule (Panels J-M)
- Type: in vivo
- SETTINGS: plasma, oral, 100 mg PIC single dose, Panel L: fasted + rabeprazole 20 mg BID, read-out: plasma AUClast, Median
REPORTED METRIC: AUC(0-t) (µM·h)
# number only, unit µM·h dropped from output

Ask: Could you share which AUC(0-t) value was measured for C[C@H]1CN(C2COC2)CCN1c1ccc(Nc2cc(-c3ccnc(N4CCn5c(cc6c5CC(C)(C)C6)C4=O)c3CO)cn(C)c2=O)nc1 [Compound (I) free base] ?
Reply: 0.27

* * *

- ASSAY: Human PK, second comparative study: single dose food and PPI assessment of 100 mg powder-in-capsule (Panels J-M)
- Format: in vivo
- SETTINGS: plasma, oral, 100 mg, 100 mg PIC single dose, Panel J: fasted, no PPI, read-out: plasma AUCinf, Mean
REPORTED METRIC: AUC(0-inf) (µM·h)
# number only, unit µM·h dropped from output

Ask: Could you share which AUC(0-inf) value was measured for C[C@H]1CN(C2COC2)CCN1c1ccc(Nc2cc(-c3ccnc(N4CCn5c(cc6c5CC(C)(C)C6)C4=O)c3CO)cn(C)c2=O)nc1 [Compound (I) free base] ?
Reply: 1.07

* * *

- ASSAY: Solubility of compound (I) free base in buffers of varying pH, FeSSIF and FaSSIF
- Type: physicochemical
- SETTINGS: aqueous buffer, pH 3.8, aqueous buffer; pH 3.80; read-out: Solubility
REPORTED METRIC: solubility (µg/mL)
# number only, unit µg/mL dropped from output

Ask: Could you share which solubility value was measured for C[C@H]1CN(C2COC2)CCN1c1ccc(Nc2cc(-c3ccnc(N4CCn5c(cc6c5CC(C)(C)C6)C4=O)c3CO)cn(C)c2=O)nc1 [Compound (I) free base] ?
Reply: 36
